# koff per entry
Target: T1, Cynomolgus monkey BCMA (cynomolgus monkey)
T1 construct: Soluble analyte in SPR; also called cyBCMA; Cyno BCMA
Test: SPR, IgG immobilised, cyno BCMA analyte
Quick note: give the figure in s⁻¹, leave out the unit.

binder	readout_units	recorded_value
COMBO_Rd4_6nM_C07 (antibody, V domains shown, IgG) VH: EVQLLESGGGLVQPGGSLRLSCAASGFTFSSYPMSWVRQAPGKGLEWVSAIGGSGGSLPYADSVKGRFTISRDNSKNTLYLQMNSLRAEDTAVYYCARYWPMADWGQGTLVTVSS VL: EIVLTQSPGTLSLSPGERATLSCRASQPISSSYLAWYQQKPGQAPRLLMYDASIRATGIPDRFSGSGSGTDFTLTISRLEPEDFAVYYCQQYQGWPLTFGQGTKVEIK	s⁻¹	0.000934

Next binder, koff to be filled in.
Exercise: Return the recorded koff value; entry: COMBO_Rd4_0.6nM_C14 (antibody, V domains shown, IgG) VH: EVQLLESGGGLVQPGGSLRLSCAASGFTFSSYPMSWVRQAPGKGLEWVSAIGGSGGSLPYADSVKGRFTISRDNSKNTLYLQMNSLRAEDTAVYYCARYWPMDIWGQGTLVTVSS VL: EIVLTQSPGTLSLSPGERATLSCRASQSVSALYLAWYQQKPGQAPRLLMYDASIRATGIPDRFSGSGSGTDFTLTISRLEPEDFAVYYCQQYYGWPLTFGQGTKVEIK
Solution: 0.000645
